Test system: VchCAST RNA-guided transposition machinery (E. coli BL21(DE3) host, lacZ target)
assay: relative integration efficiency (T-LR orientation) vs wild-type transposon end (log2 (normalized fold change)); transposon end mutated: right end (5 bp flank + 75 bp right end); higher = more efficient transposition
I'd appreciate it if you could label each record using relative integration efficiency (log2) and these ranges: LOW (below -0.1), MID (-0.1 to below 0.9), HIGH (0.9 or more)

# sequence, assigned.class
data = [
    ("ACATTTGTTGATACAACCATAAAAGGATAATTACACCCATCAATTGATAATTATCACACCCAATTTAACTATAACGCTCTGATCATAGTCAGACCAACATTGCTACGACCCGTATTCGCACCGACAC", "HIGH"),
    ("ACATTTGTTGATACAACCATAAAATGATAATTACAACCATAAAGTGATATTTATCACACCCATAAATTGATAATTACTCTGATCATAGTCAGACCAACATTGCTACGACCCGTATTCGCACCGACAC", "MID"),
    ("ACATTTGTTGATACAACCATAAAATCATCATTACCCCCATCAATTGATAATTATCCCACCCCATTTAACTATAACGCTCTGATCATAGTCAGACCAACATTGCTACGACCCGTATTCGCACCGACAC", "LOW"),
    ("ACATTTGTTGATACAACCATAAAAGGATAATTACCCCCATCAATTGATAATTATCACACCCAATTTAACTATAACGCTCTGATCATAGTCAGACCAACATTGCTACGACCCGTATTCGCACCGACAC", "LOW"),
    ("ACATTTGTTGATACAACCATAAAATGATCATTACCCCCATCAATTGATAATTATCCCACCCCATTTAACTATAACGCTCTGATCATAGTCAGACCAACATTGCTACGACCCGTATTCGCACCGACAC", "LOW"),
    ("ACATTTGTTGATACCACCATCAAATGGTAATTACACCCATAAATTGATAATTATCACACCCAATTTAACTATAACGCTCTGATCATAGTCAGACCAACATTGCTACGACCCGTATTCGCACCGACAC", "MID"),
    ("ACATTTGTTGATACAACCATAAAATGATAATTACTCTGATCATAGTCACACCCATAAATTGATAATTATCACACCCATAAATTGATATTGCGACCAACATTGCTACGACCCGTATTCGCACCGACAC", "LOW"),
    ("ACATTTGTTCATACAACCATAAAACGATAATTACACCCATAAATTGATAATTATCACACCCAATTTAACTATAACGCTCTGATCATAGTCAGACCAACATTGCTACGACCCGTATTCGCACCGACAC", "HIGH"),
    ("ACATTTGTTGATACAACCATAAAATGATAATTACTCTGATCATAGTCAGACCAACATTGCTACCACCCATAAATTGATAATTATCAGTGGGTATTTAACTATAACGGACCCGTATTCGCACCGACAC", "HIGH"),
]
